# System: T47D
# measurement.description: Cytotoxicity against human T47D cells assessed as effect on cell growth at 10 uM incubated for 48 hrs by sulforhodamine B assay
# Type: cell-based
measured.parameter: Activity

Check out these entries, answers already filled in.
- compound.structure.string: "O=C1N[C@H](C(=O)NCc2ccc(Cl)cc2Cl)C/C1=C\\N1CCOCC1"
  result: "Non-Toxic"
- compound.structure.string: "O=C(Nc1ccc(Cl)cc1Cl)[C@@H]1CCC(=O)N1Cc1ccccc1Cl"
  result: "Non-Toxic"
- compound.structure.string: "CN(C)C(=O)[C@@H]1CCC(=O)N1"
  result: "Non-Toxic"
- compound.structure.string: "COC(=O)[C@@H]1C/C(=C\\NCc2ccc(Cl)cc2Cl)C(=O)N1C(=O)OC"
  result: "Non-Toxic"

Now for a further molecule.
Q. Fill blank: measured Activity of the molecule `COc1ccc(NC(=O)[C@@H]2CCC(=O)N2)cc1OC` is ____.
A. Non-Toxic

----------
Attribute: IC50
# measured.target: P2X purinoceptor 7 (Homo sapiens, UniProt Q99572)
# measurement.description: Displacement of [3H]-A804598 from human P2X7 expressed in human HEK293 cell membrane incubated for 1 hr by microplate scintillation counting method
Please format your answer as a value with the unit trailing.

Q. Given the molecule `CN1C(=O)CC[C@H]1C(=O)NCc1ccc(Cl)cc1Cl` , what is its reported IC50?
A. 862 nM

Q. Same lookup for `O=C(NCc1ccc(Cl)cc1Cl)[C@@H]1CCC(=O)N1c1cscn1` , please.
A. 384 nM

Q. Lookup `CN1C(=O)CC[C@H]1C(=O)NCc1cccc(C(F)(F)F)c1Cl`
A. 332 nM

Q. How about this molecule: `O=C(NCc1ccc(Cl)cc1Cl)[C@@H]1CCC(=O)N1c1nccs1`
A. 2380 nM

----------
# measured.target: P2X purinoceptor 7 (Homo sapiens)
# measurement.description: Inhibition of human P2X7 expressed in human HEK293 cells assessed as reduction in BzATP-stimulated TO-PRO-3 incorporation at 10 uM preincubated with compound and TO-PRO-3 for 15 mins prior to BzATP addition and measured after 1 hr by Fluo-3AM dye based flow cytometry relative to control
# Assay type: cell-based
Active and inactive are the calls of the source. The rule behind the calls is not given here.
measured.parameter: inhibition

Past entries and their recorded results:
- compound: "O=C(NCC1CCCCC1)[C@@H]1CCC(=O)N1c1ccccc1"
  measured.target: "P2X purinoceptor 7 (Homo sapiens)"
  inhibition: "0%"
- compound: "COC(=O)C1CNC(=O)C1 (configuration not stated)"
  measured.target: "P2X purinoceptor 7 (Homo sapiens)"
  inhibition: "inactive"
- compound: "CN(C)/C=C1\\CC[C@@H](C(=O)NCc2ccc(Cl)cc2Cl)NC1=O"
  measured.target: "P2X purinoceptor 7 (Homo sapiens)"
  inhibition: "6%"
- compound: "CCCCCCNC(=O)[C@@H]1CCC(=O)N1"
  measured.target: "P2X purinoceptor 7 (Homo sapiens)"
  inhibition: "inactive"
- compound: "COC(=O)[C@@H]1CCC(=O)N1c1ccc(Cl)cc1"
  measured.target: "P2X purinoceptor 7 (Homo sapiens)"
  inhibition: "inactive"

Q. Quick check: inhibition on P2X purinoceptor 7 (Homo sapiens), item `COC(=O)[C@@H]1CCC(=O)N1c1ccc(OC)cc1` ?
A. inactive

----------
# measured.target: P2X purinoceptor 7 (Homo sapiens) (UniProt Q99572)
# Sequence (Q99572 whole entry): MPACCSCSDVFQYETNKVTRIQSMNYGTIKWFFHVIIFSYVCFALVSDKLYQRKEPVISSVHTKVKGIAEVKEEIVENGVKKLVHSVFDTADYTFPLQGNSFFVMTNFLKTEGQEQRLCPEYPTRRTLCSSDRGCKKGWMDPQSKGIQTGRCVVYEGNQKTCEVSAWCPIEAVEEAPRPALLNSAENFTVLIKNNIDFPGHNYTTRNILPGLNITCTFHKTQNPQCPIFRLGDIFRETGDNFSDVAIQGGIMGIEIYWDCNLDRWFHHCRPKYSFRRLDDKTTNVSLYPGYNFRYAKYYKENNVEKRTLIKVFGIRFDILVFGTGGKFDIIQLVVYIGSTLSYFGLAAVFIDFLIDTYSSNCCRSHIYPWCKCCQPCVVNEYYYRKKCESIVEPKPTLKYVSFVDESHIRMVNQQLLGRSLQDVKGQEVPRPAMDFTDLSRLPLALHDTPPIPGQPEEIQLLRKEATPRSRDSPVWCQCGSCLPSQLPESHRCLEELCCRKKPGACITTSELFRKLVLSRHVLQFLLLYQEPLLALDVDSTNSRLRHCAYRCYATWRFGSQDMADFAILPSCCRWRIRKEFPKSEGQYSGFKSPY
# measurement.description: Inhibition of human P2X7 expressed in human HEK293 cells assessed as reduction in BzATP-stimulated TO-PRO-3 incorporation at 10 uM preincubated with compound and TO-PRO-3 for 15 mins prior to BzATP addition and measured after 1 hr by Fluo-3AM dye based flow cytometry relative to control
# Format: cell-based
Calls of active or inactive are those of the source. The rule behind the calls is not given here.
measured.parameter: inhibition

The cases that follow already have their inhibition on record.
- compound: "COC(=O)[C@@H]1CCC(=O)N1Cc1ccccc1"
  inhibition: "inactive"
- compound: "O=C1CC[C@@H](C(=O)NCc2cc(C(F)(F)F)ccc2Cl)N1"
  inhibition: "inactive"
- compound: "O=C(NCc1ccc(Cl)cc1Cl)C1CC(=O)N(c2cccs2)C1 (stereo unspecified)"
  inhibition: "92%"
- compound: "COc1ccc(CN2C(=O)[C@@H]3C/C(=C\\N(C)C)C(=O)N3C2N(C)C)c(OC)c1 (stereo partly specified)"
  inhibition: "0%"
- compound: "Cc1ccc(NC(=O)[C@@H]2CCC(=O)N2)cc1"
  inhibition: "inactive"
- compound: "C[C@H](NC(=O)[C@@H]1C/C(=C\\N(C)C)C(=O)N1)c1ccccc1"
  inhibition: "0%"
- compound: "COC(=O)[C@@H]1CCC(=O)N1Cc1ccc([N+](=O)[O-])cc1"
  inhibition: "inactive"
- compound: "COC(=O)[C@@H]1CCC(=O)N1C"
  inhibition: "inactive"
- compound: "O=C(NCc1ccc(Cl)cc1Cl)[C@@H]1CCC(=O)N1Cc1ccc(Cl)cc1"
  inhibition: "0%"
- compound: "O=C(NCCc1ccccc1)[C@@H]1CCC(=O)N1Cc1ccccc1"
  inhibition: "0%"

Q. Reported inhibition, compound `O=C(NCc1ccccc1Cl)[C@@H]1CCC(=O)N1Cc1ccccc1` : ____
A. 0%

Q. Also need `O=C(NCc1ccc(Cl)cc1Cl)[C@@H]1CCC(=O)N1C(c1ccc(Cl)cc1)c1ccc(Cl)cc1` , thanks.
A. 0%

Q. Please answer likewise for `O=C1N[C@H](C(=O)O)CO1`
A. inactive

Q. Same for `O=C1N[C@H](C(=O)NCc2ccc(Cl)cc2Cl)C/C1=C/NCc1ccc(Cl)cc1Cl`
A. 0%

Q. // repeat for `O=C(NCc1ccc(Cl)cc1Cl)[C@@H]1CCC(=O)N1c1ccccc1Cl` and report
A. 0%

Q. # iterate: `O=C(NCc1ccc(Cl)cc1Cl)[C@@H]1CCC(=O)N1c1cccc(C(F)(F)F)c1`
A. 0%

Q. Queued: `O=C1CC[C@@H](C(=O)NC2CCCCC2)N1`
A. inactive

Q. // same read-out, input: `C[C@H](NC(=O)[C@@H]1CCC(=O)N1c1cccs1)c1ccc(Cl)cc1Cl`
A. 0%

Q. Moving on to `CN1C(=O)CC[C@H]1C(=O)NCc1ccc(Cl)cc1Cl`
A. 100%

Q. Param item: `C[C@@H](NC(=O)[C@@H]1C/C(=C\N(C)C)C(=O)N1)c1ccccc1`
A. 0%

Q. What would you report for `O=C(NCc1ccccc1)[C@@H]1CCC(=O)N1Cc1ccc(Cl)cc1Cl` ?
A. 0%

Q. Quick one: `O=C1CC[C@@H](C(=O)NCc2ccccc2)N1`
A. inactive

----------
# System: A549
# measurement.description: Cytotoxicity against human A549/ATCC cells assessed as effect on cell growth at 10 uM incubated for 48 hrs by sulforhodamine B assay
# Format: cell-based
# assay.setup: a549, 48 h
measured.parameter: Activity

Known Activity results, listed for orientation:
- molecule: "COc1ccc(NC(=O)[C@@H]2CCC(=O)N2)cc1OC"
  measured.target: "A549"
  Activity: "Non-Toxic"
- molecule: "COc1ccc(CN2C(=O)[C@@H]3C/C(=C\\N(C)C)C(=O)N3C2N(C)C)c(OC)c1 (stereo not given in full)"
  measured.target: "A549"
  Activity: "Non-Toxic"
- molecule: "O=C(NCc1ccccc1Cl)[C@@H]1CCC(=O)N1c1ccccc1"
  measured.target: "A549"
  Activity: "Non-Toxic"
- molecule: "COc1ccc(N2C(=O)[C@@H]3C/C(=C\\N(C)C)C(=O)N3C2N(C)C)cc1 (stereo not given in full)"
  measured.target: "A549"
  Activity: "Non-Toxic"
- molecule: "O=C1N[C@H](C(=O)NCc2ccc(Cl)cc2Cl)CO1"
  measured.target: "A549"
  Activity: "Non-Toxic"

Q. Request body: readout Activity, system A549, query O=C1CCCC(C(=O)NCc2ccc(Cl)cc2Cl)N1 (stereo not given) . Return the value.
A. Non-Toxic

Q. How about `O=C(NCC1CCCCC1)[C@@H]1CCC(=O)N1c1ccccc1` ?
A. Non-Toxic

Q. What do we get for `O=C(NCc1ccc(Cl)cc1Cl)[C@@H]1CCC(=O)N1c1cccs1` ?
A. Non-Toxic

Q. Also check `N#Cc1ccc(N2C(=O)CC[C@H]2C(=O)NCc2ccc(Cl)cc2Cl)cc1`
A. Non-Toxic

Q. Same read-out for `O=C(Nc1ccc(Cl)cc1Cl)[C@@H]1CCC(=O)N1Cc1ccccc1Cl` ?
A. Non-Toxic

Q. Thanks! And `O=C(NCc1ccccc1)[C@@H]1CCC(=O)N1Cc1ccc(Cl)cc1Cl` ?
A. Non-Toxic

Q. Here is the next molecule: `COc1ccc(CN2C(=O)CC[C@H]2C(=O)NCCc2ccccc2)cc1`
A. Non-Toxic

Q. Ok, now `O=C(NCc1ccc(Cl)cc1Cl)[C@@H]1CCC(=O)N1c1cncs1`
A. Non-Toxic

Q. Item: `O=C(NCc1ccc(Cl)cc1Cl)[C@@H]1CCC(=O)N1c1cscn1`
A. Non-Toxic

Q. // next record `O=C(NCc1ccc(Cl)cc1Cl)c1ccccn1`
A. Non-Toxic
